Catalogue of kon readings, one per entry.
# assay.target: T1, 犬IL-31RA ECD-10His (犬 (canine))
# T1 chain: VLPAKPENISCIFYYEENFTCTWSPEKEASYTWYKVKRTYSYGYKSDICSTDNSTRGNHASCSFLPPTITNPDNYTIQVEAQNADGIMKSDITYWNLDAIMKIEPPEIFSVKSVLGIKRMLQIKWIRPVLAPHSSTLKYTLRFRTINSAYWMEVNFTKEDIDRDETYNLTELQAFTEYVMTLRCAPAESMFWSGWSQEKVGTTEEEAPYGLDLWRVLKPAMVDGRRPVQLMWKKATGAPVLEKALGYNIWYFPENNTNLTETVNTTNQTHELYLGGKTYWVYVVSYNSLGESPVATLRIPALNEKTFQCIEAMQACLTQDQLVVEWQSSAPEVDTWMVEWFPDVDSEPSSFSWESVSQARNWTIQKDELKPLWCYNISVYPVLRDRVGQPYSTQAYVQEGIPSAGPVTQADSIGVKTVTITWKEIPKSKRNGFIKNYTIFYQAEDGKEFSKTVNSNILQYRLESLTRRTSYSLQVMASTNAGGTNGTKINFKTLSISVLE
# test.method.notes: Octet BLI, biotinylated canine IL-31RA on SA biosensor, mAb 100-3.13 nM, 1:1 model
Provide only the numeric value, understood in M⁻¹ s⁻¹.

Here's what some known entries look like.
binder	quantitative.readout
85C10 (antibody, V domains shown) VH: EFQLQQSGPELVKPGASVKISCKASGYSFTDYSINWVKQSNGKSLEWIGVINPNYGTSSHNQKFKGKATMTVDQSSSTAYMQLNSLTSEDSAVYYCARALDDYYFYWYFDVWGIGTTVTVSS VL: DVVMTQTPLSLPVSLGDQASISCRSSQSLIHTNGNTYLHWYLQKPGQSPKLLIYKVSNRFSGVPDRFSGSGSGTDFTLKISRLEAEDLGVYFCSQSTHVPLTFGAGTKLELR	427000
65G9 (antibody, V domains shown) VH: EFQLQQSGPELVKPGASVKISCKASGYSFTDYGMNWLKQINGKSLEWIAIINPNYGTASSNPKFKDKATLTVDHSSSTAYMQLSSLTSEDSAVYYCARAFDGYYFYWYFDVWGTGTTVTVSS VL: SIVMTQTPKFLLVSAGDRVTITCKASQSVTNDVTWYQQKPGQSPKLLIFSASNRYTGVPDRFTGSGYGTDFTFTISTVQAEDLAVYFCQQDYSSPWTFGGGTKLEIK	787000

Now examine the next entry.
// query # get_value(readout='kon', item= 224G3 (antibody, V domains shown) VH: EVQLVESGGDLVKPGGSLKLSCAASGFTFSSYGMSWVRQTPDKRLEWVATISNGGSYTYYPDSVKGRFTISRDNAKNTLYMQMSSLKSEDTAMYYCARNEPPDYWGQGTSVTVSS VL: DIQMTQSPASLSVSVGETVTITCRASENIYSSLAWYQQKQGKSPQLLVYAATNLADGVPSRFSGSGSGTQYSLKINSLQSEDSGNYYCQHFRDTPPTFGGGTKLEIK )
// result 1.12e+06
